Each recorded value in this set is attributed to ChEMBL document CHEMBL1201862.

As shown below, each of these compounds has a reported GI50 value.
test system: SK-MEL-5; assay: NCI tumour cell line growth inhibition, 48 h
Active and inactive are the calls of the source. Cut-off read from the data, not from the text of the source: active = GI50 up to about 1.1 µM and inactive = higher.
assay_metric: GI50

O=c1c2c3c(sc2nc2n1NC=NN2)CCCC3 ... 16.4 µM (inactive)
C[N+](C)(C)CC(=O)N/N=C(\CCC(=O)NCCc1ccccc1)CC(=O)c1ccccc1 ... > 100 µM (inactive)
O=S(=O)(CF)OCCCCOS(=O)(=O)CF ... > 100 µM (inactive)
O=C(/C=C/c1ccc(OCC(=O)N2CCN(c3ccccc3)CC2)cc1)c1ccc(Cl)cc1 ... 54.2 µM (inactive)
CCOP(=O)(OCC)[C@H]1OC(C)(C)O[C@@H]1CO ... > 100 µM (inactive)
C/C1=C\CC/C(C)=C/C=C(/C(C)C)CC/C(C(=O)O)=C/CC1 ... 36 µM (inactive)
CC(C)[C@H](COC(C)(C)C)/N=C/N1CSc2ccccc21 ... 25.1 µM (inactive)
O=P(O)(O)c1ccc(-c2ccc(I)cc2)cc1 ... > 100 µM (inactive)
Cc1ccc(CNNC(=O)c2cc[n+]([BH2-]C#N)cc2)cc1 ... > 100 µM (inactive)
Nc1nc(Cl)cc(NCC2(CO)CCC(CCc3ccccc3)C2)n1 (stereo not given) ... 0.0665 µM (active)
O=C1NC(=O)C(CC(C(=O)C(=O)Nc2ccccc2Cl)C(=O)c2ccc3ccccc3c2)C(=O)N1 (stereo not given) ... > 100 µM (inactive)
O=c1[nH]c(=O)n(C2CC(O)C(CO)O2)cc1/N=N/NCc1ccccc1 (stereo not given) ... > 100 µM (inactive)
O=[N+]([O-])/C(C(Cl)=C(Cl)Cl)=C(/Sc1ccccc1)N1CCCCC1 ... 24.5 µM (inactive)
N#Cc1nnn(-c2ccccc2)c1O ... > 100 µM (inactive)
O=C1c2ccccc2C(=O)N1Cc1ccccc1-c1c2nc(c(-c3ccccc3CN3C(=O)c4ccccc4C3=O)c3ccc([nH]3)c(-c3ccccc3CN3C(=O)c4ccccc4C3=O)c3nc(c(-c4ccccc4CN4C(=O)c5ccccc5C4=O)c4ccc1[nH]4)C=C3)C=C2 ... 52.7 µM (inactive)
CC(C)C1=CC23CCC4C(C)(C(=O)O)CCCC4(C)C2CC1C1C(=O)N(c2ccc(C(=O)O)cc2)C(=O)C13 (stereo not given) ... > 100 µM (inactive)
O=C(CCCN1CCC2(CC1)CC(c1ccccc1)OC2=O)c1ccc(F)cc1 (stereo not given) ... 15 µM (inactive)
Cc1ccc(/C=C2\CNC/C(=C\c3ccc(C)cc3)C2=O)cc1 ... 2.43 µM (inactive)
CCOC(=O)[C-]([N+]#N)[Si](C)(C)C ... > 100 µM (inactive)
CC1=CC(=O)NP(=O)(Oc2ccc(C)cc2)N1 (stereo not given) ... > 100 µM (inactive)

---

test system: HCT-116; assay: NCI tumour cell line growth inhibition, 48 h
The source made the active and inactive calls. Rule as the data show it: active = GI50 up to about 1.1 µM and inactive = higher. Square brackets hold non-standard residues; d marks the D form. Peptide text beside a SMILES is read from it. 2Nal = N[CH](Cc1ccc2ccccc2c1)C(=O)O
assay_metric: GI50

Cc1ccc(Sc2ccc(C)cc2[N+](=O)[O-])c([N+](=O)[O-])c1 ... > 100 µM (inactive)
O=C1c2ccccc2C(=O)N1Cc1ccccc1-c1c2nc(c(-c3ccccc3CN3C(=O)c4ccccc4C3=O)c3ccc([nH]3)c(-c3ccccc3CN3C(=O)c4ccccc4C3=O)c3nc(c(-c4ccccc4CN4C(=O)c5ccccc5C4=O)c4ccc1[nH]4)C=C3)C=C2 ... > 100 µM (inactive)
CC12CCC(=O)C[C@H]1CCC(OC=O)C2Br (stereo partly specified) ... > 100 µM (inactive)
Cc1ccc(S(=O)(=O)N2CCN(CCO)CCN(S(=O)(=O)c3ccc(C)cc3)CCN(CCO)CC2)cc1 ... 15 µM (inactive)
O=C1CC(c2ccc(Cl)cc2)Oc2ccccc21 (stereo unspecified) ... 37.3 µM (inactive)
COc1ccc2[nH]c3c4c(c5cc(C(C)(C)C)ccc5c3c2c1)C(=O)N(c1ccccc1)C4=O ... > 100 µM (inactive)
O=S(=O)(CF)OCCCCOS(=O)(=O)CF ... > 100 µM (inactive)
COc1ccc(C2OC(c3ccncc3)=NN2C)cc1F (stereo unspecified) ... > 100 µM (inactive)
O=C1Sc2ccccc2NC1=C(C(=O)c1ccccc1)C(=O)c1ccccc1 ... 18.7 µM (inactive)
CC(C)C(NC(=O)C(CCCCN)NC(=O)C(Cc1c[nH]c2ccccc12)NC(=O)C(Cc1ccc(O)cc1)NC(=O)C(CS)NC(=O)C(N)Cc1ccc2ccccc2c1)C(=O)NC(CS)C(=O)NC(C(N)=O)C(C)O (stereo unspecified) (H-[2Nal]CYWKVCT-NH2; configuration not given here) ... > 12.5 µM (inactive)
COC(=O)C(Cc1nc2ccc(Cl)cc2nc1O)/C(=N/O)C(=O)Nc1cccc(Cl)c1C (stereo unspecified) ... > 100 µM (inactive)
COc1nn(Cc2ccccc2F)c2ccc([N+](=O)[O-])cc12 ... > 100 µM (inactive)
O=[N+]([O-])/C(C(Cl)=C(Cl)Cl)=C(/Sc1ccccc1)N1CCCCC1 ... 37.8 µM (inactive)
O=C(O)CCCC(=O)Nn1c(Cc2ccc(Cl)cc2)n[nH]c1=O ... > 100 µM (inactive)
O=C(O)CNc1c2ccccc2nc2ccccc12 ... 78.3 µM (inactive)
Cc1cc(=O)n(-c2ccccc2)c(=O)o1 ... > 100 µM (inactive)
CC1=NN=C(N)N/C1=C/C(Sc1ccc(Cl)cc1)c1cccs1 (stereo unspecified) ... 13.6 µM (inactive)
CN(C)c1ccc(/N=N\c2cccc3ncccc23)cc1 ... 52.7 µM (inactive)
C/C(=C/C(=O)Nc1ccccc1)Nc1onc(C)c1C ... > 100 µM (inactive)
CCN1C(=O)CS/C1=N\NC(=O)CSc1nc2ccccc2c(=O)n1CC ... > 100 µM (inactive)
CCOc1ccc(NC(=O)/C(=N\NC(C)(C)C)C2C(=O)Nc3ccccc3[S+]2[O-])cc1 (stereo unspecified) ... > 100 µM (inactive)
